Values were extracted from ChEMBL document CHEMBL1201862.

Tested on: HCT-116
TEST DESCRIPTION: NCI tumour cell line growth inhibition, 48 h
Calls of active or inactive are those of the source. Rule as the data show it: active = GI50 up to about 1.1 µM and inactive = higher.
Select the correct class. Options are YES for active, NO for inactive and nothing else.

These solved cases illustrate the format of a correct answer.
COMPOUND	ASSIGNED LABEL
O=C1Oc2ccccc2C(=O)/C1=C/NC(=S)NCCc1ccccc1	NO
CC(C)=CCNc1ncnc2c1ncn2CCC#N	NO
CN(CCc1ccccn1)C(=S)N/N=C(\c1ccccc1)c1ccccn1	YES
Cc1ccc(/C=C2/N/C(=N\N=C/c3ccccc3)NC2=O)cc1	NO
CC[C@@]1(O)C[C@H](OC2CC(N(C)C)C(OC3CC(O)C(OC4CCC(=O)C(C)O4)C(C)O3)C(C)O2)c2c(cc3c(c2O)C(=O)c2c(O)ccc(O)c2C3=O)[C@H]1C(=O)OC (some centres undefined)	YES
Cc1cc2c(=O)[nH]nc(N)c2c(N)n1	NO
CC(C)(C)NC(=O)CCC1C(C(=O)NC(C)(C)C)C2(Cl)C(Cl)=C(Cl)C1(Cl)C2(Cl)Cl (centres undefined)	NO
COc1ccc(-c2c(N)n(-c3cccc(C(=O)O)c3)c(=O)c3cc([N+](=O)[O-])ccc23)cc1	NO

Here is another compound to look at.
IN: Please let me know the test result on file for COC(=O)c1cc2/c(=N/O)c3ccccc3sc2o1 .
OUT: NO

---

System: TK-10
TEST DESCRIPTION: NCI tumour cell line growth inhibition, 48 h
Active and inactive are the calls of the source. Rule as the data show it: active = GI50 up to about 1.1 µM and inactive = higher.
// reported GI50 for each item listed

Past entries and their recorded results:
COMPOUND	TARGET OF ASSAY	EXPERIMENTAL RESULT
O=C1CC(=O)NC(NN2C(=O)/C(=C/C(=O)c3ccco3)N=C2c2ccccc2)=N1	TK-10	> 100 µM (inactive)
O=C1c2ccccc2C(=O)N1CCSCC(CO)SCCN1C(=O)c2ccccc2C1=O (stereo not given)	TK-10	> 100 µM (inactive)
COC(=O)/C=C1/OC(c2ccccc2)=C(Br)C1=O	TK-10	80.5 µM (inactive)

For reference, reported GI50 for Cc1cc2nc3ccc(N(C)C)cc3[s+]c2cc1N [TOLONIUM CHLORIDE] stands at 19.2 µM (inactive)

For reference, reported GI50 for CCCCCCC(O)C(=O)OC1C2C(CC1(C)C)C(O)C13OC1C(O)C1(CO1)[C@@]23C (stereo not given in full) stands at 44.9 µM (inactive)

---

Tested on: PC-3
TEST DESCRIPTION: NCI tumour cell line growth inhibition, 48 h
Activity calls are given as the source filed them. No stated cut-off is given here; in the data, active = GI50 up to about 1.1 µM and inactive = higher.
// reported GI50 for each item listed

COMPOUND	EXPERIMENTAL ENDPOINT	EXPERIMENTAL RESULT
N/C(=N\Nc1nc2cc([N+](=O)[O-])ccc2o1)c1ccccn1	GI50	0.122 µM (active)
COC(=O)C1=C(C)NC(C)=C([N+](=O)[O-])C1c1cccc(N=O)c1 (stereo not drawn)	GI50	17.9 µM (inactive)

The record that follows has no GI50 shown yet.
The compound CC(C)COP(C)(=O)C(N)(C(F)(F)F)C(F)(F)F (stereo not drawn) , tested on PC-3, showed GI50 of > 100 µM (inactive)

---

Test system: KM12
TEST DESCRIPTION: NCI tumour cell line growth inhibition, 48 h
The source made the active and inactive calls. No stated cut-off is given here; in the data, active = GI50 up to about 1.1 µM and inactive = higher.
Select the correct class. Options are Y (active), N (inactive) and nothing else.

These solved cases illustrate the format of a correct answer.
MOL	ASSIGNED LABEL
Cc1csc(-n2c(C)nc3cc(Cl)ccc3c2=O)n1	N
COc1ccc2oc(=O)c(-c3cc4c(c(C)n3)c(=O)oc3ccc(OC)cc34)cc2c1	N
CCN(CC)C(=S)SS(=O)(=O)c1ccc(NC(C)=O)cc1	N

IN: Please let me know the test result on file for CC(C)CCC/C(CBr)=C(\Cl)CCl .
OUT: N

IN: Please let me know the test result on file for O=C(CN1CCCCC1)c1ccc2c(c1)Sc1ccccc1O2 .
OUT: N

IN: Please let me know the test result on file for CN(CCc1ccccn1)C(=S)N/N=C(\c1ccccc1)c1ccccn1 .
OUT: Y
